# System: SAUR 9218
# MEASUREMENT_NOTES: MIC Test Method, standard agar dilution
# Assay type: cell-based
# CONDITION_INFO: agar dilution, Mueller Hinton agar, incubated overnight at 35° C.; lowest concentration that inhibits visible growth; read-out: SAUR 9218 MIC
Measured MIC by item
Please respond with the number in µg/mL and leave the unit unwritten.

Known results for compounds:
INSERT INTO measurements (compound, result) VALUES
  ('N#Cc1ccc(NC(=O)c2cc3cccc(NC(=O)C4CC4c4ccccc4)c3[nH]2)c(C(=O)O)c1 (stereo not shown)', 0.5),
  ('N#Cc1ccc(NC(=O)c2cc3cccc(NC(=O)COc4ccc5ccccc5c4)c3[nH]2)c(C(=O)O)c1', 0.25),
  ('CCCCCOc1cccc2cc(C(=O)Nc3ccc(C#N)cc3C(=O)O)n(C)c12', 0.125),
  ('Cn1c(C(=O)Nc2ccc(C#N)cc2C(=O)O)cc2c(Br)ccc(NC(=O)Cc3ccccc3)c21', 2),
  ('O=C(Nc1ccc(Br)cc1C(=O)O)c1ccc(Br)s1', 16),
  ('COCC(O)COc1cccc2cc(C(=O)Nc3ccc(C#N)cc3C(=O)O)n(C)c12 (stereo not shown)', 0.5);

query: I have this compound here, O=C(Nc1ccc(Br)cc1C(=O)O)c1cc(-c2ccc3c(c2)OCO3)on1 , and I need its recorded MIC.
result: 0.125

query: Next: C=CCOc1ccccc1-c1cc(C(=O)Nc2ccc(C#N)cc2C(=O)O)no1
result: 0.125

----------
# System: SAUR 9218
# MEASUREMENT_NOTES: MIC Test Method, standard agar dilution
# Assay type: cell-based
# CONDITION_INFO: agar dilution, Mueller Hinton agar, incubated overnight at 35° C.; lowest concentration that inhibits visible growth; read-out: SAUR 9218 MIC
MIC overview

Here's what some known entries look like.
INSERT INTO results (compound, tested_on, measure, result) VALUES
  ('Cn1c(C(=O)Nc2ccc(C#N)cc2C(=O)O)cc2c(-c3ccccc3C(F)(F)F)cc(-c3ccccc3C(F)(F)F)c(NC(=O)Cc3ccccc3)c21', 'SAUR 9218', 'MIC', '8 µg/mL'),
  ('O=C(O)c1cc(Br)ccc1NC(=O)c1cc2ccccc2n1CCCc1ccccc1', 'SAUR 9218', 'MIC', '4 µg/mL'),
  ('Cl.Cn1c(C(=O)Nc2ccc(C#N)cc2C(=O)O)cc2cccc(OCC(O)CNCc3cccs3)c21 (stereo not drawn)', 'SAUR 9218', 'MIC', '0.5 µg/mL'),
  ('N#Cc1ccc(NC(=O)c2noc3cc(-c4ccccc4)ccc23)c(C(=O)O)c1', 'SAUR 9218', 'MIC', '0.125 µg/mL'),
  ('COCOCC(OCOC)C(Cc1cnc(C(=O)Nc2ccc(Br)cc2C(=O)O)cn1)OC (stereo not drawn)', 'SAUR 9218', 'MIC', '> 128 µg/mL');

query: What value of measured MIC is listed for N#Cc1ccc(NC(=O)c2cc3cccc(NC(=O)CCCc4ccccc4)c3[nH]2)c(C(=O)O)c1 ?
result: 0.5 µg/mL

query: Also check CCCCCNC(=O)Nc1ccc2cc(C(=O)Nc3ccc(C#N)cc3C(=O)O)n(C)c2c1
result: 0.5 µg/mL

query: Try the compound N#Cc1ccc(NC(=O)c2ccc(SCCCCO)nc2)c(C(=O)O)c1
result: 2 µg/mL

query: And CNS(=O)(=O)c1ccc2onc(C(=O)Nc3ccc(C#N)cc3C(=O)O)c2c1 ?
result: 0.06 µg/mL
